TGT: Human immunodeficiency virus type 1 integrase (Human immunodeficiency virus 1)
ASSAY_PROTOCOL: Inhibition of HIV-1 His6-tagged integrase assessed as inhibition of LEDGF/p75-integrase interaction incubated 30 mins prior to flag-tagged LEDGF/p75 addition measured after 1 hr by AlphaScreen assay
Positions of bridges follow the written chain, without caps; N, C: chain ends. Non-standard residues stand in square brackets, D forms with d. Residues, ends and D or L forms follow the SMILES beside them. S5 = C=CCCC[C@](C)(N)C(=O)O
ATTRIBUTE_MEASURED: pIC50
pIC50 (log units): -log10 of the concentration in mol/L.

Known results for compounds:
CC(C)C[C@H](NC(=O)[C@H](CCCCN)NC(=O)[C@H](CC(C)C)NC(=O)[C@H](CC(C)C)NC(=O)[C@H](Cc1ccccc1)NC(=O)[C@H](Cc1ccc(O)cc1)NC(=O)[C@H](C)NC(=O)[C@@H](NC(=O)c1ccc2c(c1)C(=O)OC21c2ccc(O)cc2Oc2cc(O)ccc21)[C@@H](C)O)C(=O)N[C@@H](C)C(=O)NCC(=O)N[C@@H](CCCNC(=N)N)C(=O)N[C@@H](Cc1c[nH]c2ccccc12)C(=O)O (mixture of isomers)	4.60
CC(C)C[C@@H]1NC(=O)[C@H](CCCCN)NC(=O)[C@H](CC(C)C)NC(=O)[C@@](C)(NC(=O)[C@H](Cc2ccccc2)NC(=O)[C@H](Cc2ccc(O)cc2)NC(=O)[C@H](C)NC(=O)[C@@H](NC(=O)c2ccc3c(c2)C(=O)OC32c3ccc(O)cc3Oc3cc(O)ccc32)[C@@H](C)O)CCC/C=C\CCC[C@@](C)(C(=O)NCC(=O)N[C@@H](CCCNC(=N)N)C(=O)N[C@@H](Cc2c[nH]c3ccccc23)C(=O)O)NC1=O (mixture of isomers)	4.60

Here is another compound to look at.
# pIC50 (compound: CC[C@H](C)[C@@H]1NC(=O)[C@H](CC(C)C)NC(=O)[C@@](C)(NC(=O)[C@H](Cc2ccccc2)NC(=O)[C@H](Cc2ccc(O)cc2)NC(=O)[C@H](C)NC(=O)[C@@H](N)[C@@H](C)O)CCC/C=C\CCC[C@@](C)(C(=O)NCC(=O)N[C@@H](CCCNC(=N)N)C(=O)N[C@@H](Cc2c[nH]c3ccccc23)C(=O)O)NC(=O)[C@H](CC(C)C)NC1=O (H-TAYF[S5]LIL[S5]GRW-OH; staple (Z) 5-9) ) is 5.30

---

TGT: Human immunodeficiency virus type 1 integrase (Human immunodeficiency virus 1, UniProt Q7ZJM1)
Sequence (Q7ZJM1 whole entry): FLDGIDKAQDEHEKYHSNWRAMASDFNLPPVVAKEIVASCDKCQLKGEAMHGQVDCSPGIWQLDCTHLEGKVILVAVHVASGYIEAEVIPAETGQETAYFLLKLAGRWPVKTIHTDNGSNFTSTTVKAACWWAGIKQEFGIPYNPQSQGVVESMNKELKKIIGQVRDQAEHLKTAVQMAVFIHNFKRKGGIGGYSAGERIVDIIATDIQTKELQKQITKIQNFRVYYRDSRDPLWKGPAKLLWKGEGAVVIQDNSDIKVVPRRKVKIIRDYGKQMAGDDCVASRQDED
ASSAY_PROTOCOL: Inhibition of wild type HIV-1 integrase strand transfer activity after 30 mins
Starred links: 1 amine or outer side, 2 acyl side, 3 side chain; linkers in the order of their positions; H or OH if unused. Positions of bridges follow the written chain, without caps; N, C: chain ends. Non-standard residues stand in square brackets, D forms with d. Residues, ends and D or L forms follow the SMILES beside them. αMeNva(5-ylidene) = C[C@@](CCC=[*:3])(N[*:1])C(=O)[*:2]; S5 = C=CCCC[C@](C)(N)C(=O)O
# IC50 per record follows
Number in µM, nothing else.

Solved cases (2 shown):
C=CCCC[C@](C)(NC(=O)[C@H](CC(C)C)NC(=O)[C@@H](NC(=O)[C@H](CC(C)C)NC(=O)[C@](C)(CCCC=C)NC(=O)[C@H](Cc1ccccc1)NC(=O)[C@H](Cc1ccc(O)cc1)NC(=O)[C@H](C)NC(=O)[C@@H](N)[C@@H](C)O)[C@@H](C)CC)C(=O)NCC(=O)N[C@@H](CCCNC(=N)N)C(=O)N[C@@H](Cc1c[nH]c2ccccc12)C(=O)O (H-TAYF[S5]LIL[S5]GRW-OH)	11
CC(C)C[C@@H]1NC(=O)[C@H](CCCCN)NC(=O)[C@H](CC(C)C)NC(=O)[C@@](C)(NC(=O)[C@H](Cc2ccccc2)NC(=O)[C@H](Cc2ccc(O)cc2)NC(=O)[C@H](C)NC(=O)[C@@H](N)[C@@H](C)O)CC/C=C/CC[C@@](C)(C(=O)NCC(=O)N[C@@H](CCCNC(=N)N)C(=O)N[C@@H](Cc2c[nH]c3ccccc23)C(=O)O)NC1=O (H-TAYF[αMeNva(5-ylidene)]LKL[αMeNva(5-ylidene)]GRW-OH; staple (E) 5-9)	83

Turning now to a further compound:
Recorded result, CC(C)C[C@H](NC(=O)[C@H](CCCCN)NC(=O)[C@H](CC(C)C)NC(=O)[C@H](CC(C)C)NC(=O)[C@H](Cc1ccccc1)NC(=O)[C@H](Cc1ccc(O)cc1)NC(=O)[C@H](C)NC(=O)[C@@H](NC(=O)c1ccc2c(c1)C(=O)OC21c2ccc(O)cc2Oc2cc(O)ccc21)[C@@H](C)O)C(=O)N[C@@H](C)C(=O)NCC(=O)N[C@@H](CCCNC(=N)N)C(=O)N[C@@H](Cc1c[nH]c2ccccc12)C(=O)O (mixture of isomers) , IC50: 6.2

The measurements presented in this section are drawn from ChEMBL document CHEMBL2396599.
